test: qHTS profiling for inhibitors of Plasmodium falciparum (DD2) proliferation (AID 743323); details: lower = more inhibition; at 28.7 µM (top of the series)
# activity, percent of control listing for each entry below
Give the quantity in %, number only.

Study these solved cases before continuing.
{"MOLECULAR_STRING": "O=C(NCCN1CCCC1)[C@H](Cc1ccc(OS(=O)(=O)c2cccc3cnccc23)cc1)NS(=O)(=O)c1cccc2cnccc12", "activity, percent of control (%)": 49.2}
{"MOLECULAR_STRING": "CC(C)(C)c1cc(O)c(CN)c(C(C)(C)C)c1", "activity, percent of control (%)": 0.498}
{"MOLECULAR_STRING": "CC(C)(C)OC(=O)N[C@@H](Cc1ccc(O[S+](=O)([O-])c2cccnc2)cc1)C(=O)N1CCN(c2ccccc2)CC1", "activity, percent of control (%)": 0.682}

// moving on: another record for activity, percent of control
Read off the recorded activity, percent of control for `O=C([C@H](Cc1ccc(O[S+](=O)([O-])c2cccnc2)cc1)N[S+](=O)([O-])c1cccc2cnccc12)N1CCN(c2ccccc2)CC1`
4.11

----------
target: Nuclear receptor subfamily 1 group I member 3 (Homo sapiens) (UniProt Q14994); test: qHTS for Constitutive Androstane Receptor (CAR) Antagonist screened against the NCATS CANVASS Library (AID 1347372); conditions: HepG2-hCAR-CYP2B6 luciferase, CITCO-stimulated antagonist mode; series mostly up to 46.1 µM
Sequence (Q14994 whole entry, looked up): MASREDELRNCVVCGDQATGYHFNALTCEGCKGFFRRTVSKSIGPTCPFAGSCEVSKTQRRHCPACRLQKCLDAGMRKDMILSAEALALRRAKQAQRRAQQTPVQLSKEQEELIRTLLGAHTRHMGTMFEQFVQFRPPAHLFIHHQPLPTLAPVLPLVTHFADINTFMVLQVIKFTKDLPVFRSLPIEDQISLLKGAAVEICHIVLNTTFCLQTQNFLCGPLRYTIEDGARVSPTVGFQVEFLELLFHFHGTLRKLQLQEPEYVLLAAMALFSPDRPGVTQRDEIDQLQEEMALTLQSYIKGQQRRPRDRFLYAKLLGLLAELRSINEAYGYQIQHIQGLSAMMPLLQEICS
Records with an inconclusive call do not appear. Active and inactive are the calls of the source. Calls follow the shape of the dose curve; as a rule, active = well fitted inhibition curve with a large enough effect; inconclusive = small, poorly fitted or top-dose-only effect; inactive = no such curve, though single readings can be large or run the other way.
The categories you may choose from are active, inactive

Previously resolved entries follow.
{"MOLECULE": "C=C[C@@]1(C)CC[C@@H]([C@H](C)C(C)=O)O1", "TARGET_DESC": "Nuclear receptor subfamily 1 group I member 3 (Homo sapiens) (UniProt Q14994)", "CATEGORY_LABEL": "inactive"}
{"MOLECULE": "C=C(Cl)[C@](Cl)(CBr)CC[C@@H](Br)C(C)(C)Cl", "TARGET_DESC": "Nuclear receptor subfamily 1 group I member 3 (Homo sapiens) (UniProt Q14994)", "CATEGORY_LABEL": "inactive"}
{"MOLECULE": "COc1cc(/C=C/C(=O)OC[C@@H](Cc2ccc(O)c(OC)c2)[C@@H](COC(=O)/C=C/c2ccc(O)c(OC)c2)Cc2ccc(O)c(OC)c2)ccc1O", "TARGET_DESC": "Nuclear receptor subfamily 1 group I member 3 (Homo sapiens) (UniProt Q14994)", "CATEGORY_LABEL": "inactive"}
{"MOLECULE": "CC(C)=CCC/C(C)=C/Cc1cc([C@@H]2CC(=O)c3c(cc(O)c(CC=C(C)C)c3O)O2)ccc1O", "TARGET_DESC": "Nuclear receptor subfamily 1 group I member 3 (Homo sapiens) (UniProt Q14994)", "CATEGORY_LABEL": "inactive"}

Kindly provide the recorded test outcome for the following molecule: `Cc1cc(O)cc2c1C(=O)c1c(O)cc(O)cc1C2=O`
inactive

Kindly provide the recorded test outcome for the following molecule: `COC(=O)c1cccc2oc(-c3cccc4oc(-c5c(C)cccc5O)nc34)nc12`
inactive

Kindly provide the recorded test outcome for the following molecule: `Cc1cc(C)c(O)c(C(=O)CC2CC(=O)NC(=O)C2)c1`
active

Kindly provide the recorded test outcome for the following molecule: C=C1C[C@H]2O[C@@H]3[C@@H]4[C@H](CC[C@@](C)(O)[C@@H]42)[C@H](C)COC3(C)[C@@H](OC(=O)CCCCCCC)CC1=O (some centres undefined)
inactive

Kindly provide the recorded test outcome for the following molecule: `CC(C)=CC[C@H]1C[C@@]2(CC=C(C)C)C(=O)[C@](CC=C(C)C)(C(=O)C(C(=O)c3ccccc3)=C2O)C1(C)C`
inactive

Kindly provide the recorded test outcome for the following molecule: CO[C@@H]1[C@H](O)[C@@H](C)O[C@@H](OC[C@@H]2C(C)OC(=O)/C=C/[C@H](C)C(O[C@@H]3O[C@H](C)CC4(OC(=O)O[C@@H]4C)C3O)[C@@H](C)CC(C)C(=O)/C=C/[C@H]3OC23)[C@@H]1OC (some centres undefined)
active

Kindly provide the recorded test outcome for the following molecule: `C/C(=C\[C@H](C)C(=O)CCCC1CC(=O)NC(=O)C1)[C@@H]1OC(=O)/C=C/CC/C=C/[C@H](O)[C@@H](O)[C@@H]1C`
active

Kindly provide the recorded test outcome for the following molecule: O=C1CC(c2ccc(O)cc2)Oc2cc(O)ccc21 (centres undefined)
inactive

Kindly provide the recorded test outcome for the following molecule: `O[C@H]1C=C2[C@H]3CN(Cc4cc5c(cc43)OCO5)[C@H]2C[C@@H]1O`
active

Kindly provide the recorded test outcome for the following molecule: CCC(C)=C1OC(=O)[C@H](C)[C@H](O)[C@H](Cc2cccnc2)NC(=O)C(NC(=O)c2ncccc2O)C(C)OC1=O (some centres undefined)
inactive

Kindly provide the recorded test outcome for the following molecule: `COC(=O)[C@@]12Oc3cccc(O)c3C(O)=C1C(=O)C[C@H](C)[C@H]2O`
inactive

Kindly provide the recorded test outcome for the following molecule: C/C=C/C(=O)C1(O)CC2CC(C(=O)O)CC(C)C2C1C1=C2C(=O)NC(=O)C2=C(CCCCC)C(C)O1 (centres undefined)
inactive

Kindly provide the recorded test outcome for the following molecule: `CN1CC[C@]23c4ccccc4N[C@H]1[C@]21CCN(C)[C@H]3Nc2ccccc21`
inactive

Kindly provide the recorded test outcome for the following molecule: `O=Cc1ccc2n1C[C@]1(C[C@H](O)[C@@H](CO)O1)OC2`
inactive

----------
assay: UWB1.289-WTBRCA1 Cancer Cell Toxicity qHTS against the NCATS CANVASS Library (AID 1347354); conditions: UWB1.289-WTBRCA1 viability, CellTiter-Glo luminescence, 72 h; series mostly up to 38.3 µM
Results filed as inconclusive are left out. Activity calls are given as the source filed them. Calls follow the shape of the dose curve; as a rule, active = well fitted cell-killing curve with a large enough effect; inconclusive = small, poorly fitted or top-dose-only effect, or effect the other way; inactive = flat fitted curve, though single readings scatter.
The categories you may choose from are active, inactive

{"MOLECULE": "C/C1=C/[C@@H](C)[C@H](O)[C@@H](O)/C=C/CC/C=C/C(=O)O[C@@H]1[C@H](C)C(=O)CCCC1CC(=O)NC(=O)C1", "CATEGORY_LABEL": "inactive"}

Kindly provide the recorded test outcome for the following molecule: `C/C=C/[C@H]1[C@H]2C(=O)c3c(O)c(C)c(O)c(C)c3[C@]1(C(=O)O)C(=O)C=C2C`
inactive

Kindly provide the recorded test outcome for the following molecule: COc1cc2c(cc1OC)[C@@H](c1ccc3c(c1)OCO3)C(C)C(C)C2=O (stereo partly specified)
inactive

Kindly provide the recorded test outcome for the following molecule: C/C=C1/CN2C3CC1C1C=CC(=O)N4c5ccccc5[C@@]3(C[C@@H]2C2=C[C@H]3C5CC6N(CC[C@@]67c6ccccc6N(C2=O)[C@@H]37)C/C5=C/C)[C@H]14 (stereo partly specified)
active

Kindly provide the recorded test outcome for the following molecule: `COc1cc2oc3ccccc3c(=O)c2cc1OC`
inactive

Kindly provide the recorded test outcome for the following molecule: `CC[C@@H]1[C@H](C)[C@H](c2cc(OC)c(OC)cc2OC)[C@@H](C)[C@H](c2cc(OC)c(OC)cc2OC)[C@]12C=C(OC)C(=O)C=C2OC`
inactive

----------
assay: qHTS drug screen for cell cycle checkpoint inhibitors in PARPi-resistant BRCA-mutant ovarian cancer cell lines. (AID 1963452); conditions: PEO1/OlaR viability, CellTiter-Glo luminescence, 96 h; measured here: PEO1 parental Z-AUC; stronger effect = lower value
Each record's class is read off its Z-AUC using these ranges: class 1: < -0.6; class 2: ≥ -0.6 and < 0.2; class 3: ≥ 0.2

{"COMPOUND": "CN1CCN(c2ccc3nc(-c4cc(C(C)(C)C)c(OCCCC(=O)NCCCN=[N+]=[N-])c(C(C)(C)C)c4)[nH]c3c2)CC1", "CATEGORY_LABEL": "class 3"}
{"COMPOUND": "COc1cc(-c2cn(C)c(=O)c3cnccc23)cc(OC)c1CN(C)C", "CATEGORY_LABEL": "class 3"}
{"COMPOUND": "CN(C)c1cc(NC(=O)CNC(C)(C)C)c(O)c2c1C[C@H]1C[C@H]3[C@H](N(C)C)C(=O)C(C(N)=O)=C(O)[C@]3(O)C(=O)C1=C2O", "CATEGORY_LABEL": "class 3"}
{"COMPOUND": "Cc1ccc(S(=O)(=O)Nc2cc(C(F)(F)F)ccc2C(=O)Nc2nc(-c3ccccc3)cs2)cc1", "CATEGORY_LABEL": "class 2"}
{"COMPOUND": "CN(Cc1ccc(/C=C/C(=O)NO)cc1)CC12CC3CC(CC(C3)C1)C2", "CATEGORY_LABEL": "class 1"}

# bin label for `CCN1C(=O)CNc2ncc(-c3ccc(-c4ncn[nH]4)nc3C)nc21`
class 3

# bin label for `CC(C)(O)CNc1ncc(-c2ccnc(Nc3ccncc3)n2)c(CC2CC2)n1`
class 2

# bin label for `O=C(O)CNC(=O)c1nc(Cl)c2ccccc2c1O`
class 2

# bin label for `COc1nnc2ccc(N3CCC(c4ccc(OCCN5CCN(C)C(=O)[C@H]5C)cc4)CC3)nn12`
class 1

# bin label for `CC(C)Oc1ccc(-c2nn([C@@H](C)c3oc4ccc(F)cc4c(=O)c3-c3cccc(F)c3)c3ncnc(N)c23)cc1F`
class 2

# bin label for `O=C(/C=C\n1cnc(-c2cc(C(F)(F)F)cc(C(F)(F)F)c2)n1)NNc1cnccn1`
class 1

# bin label for C/C=C(/C)C(=O)O[C@H]1C(C)=CC23C(=O)C(C=C(CO)[C@@H](O)[C@]12O)[C@H]1[C@@H](C[C@H]3C)C1(C)C (stereo not given in full)
class 2

# bin label for `CSC[C@H]1CN(Cc2c[nH]c3c(N)ncnc23)C[C@@H]1O`
class 3

# bin label for `CO[C@@H]1[C@@H](O)[C@H](O)[C@@H](n2c3c(Cl)cccc3c3c4c(c5c6cccc(Cl)c6[nH]c5c32)C(=O)NC4=O)O[C@H]1CO`
class 1

Hello, the source for this data is PubChem BioAssay (NCATS), in case you need it.
